Recorded measurements of 2*(1-BDC) (%), one per entry
biological target: SARS-CoV-2 NSP3 macrodomain (Mac1), P43 crystal form (Severe acute respiratory syndrome coronavirus 2, UniProt P0DTD1); type: binding; details: occupancy estimate from PanDDA 1-BDC
Output spec: scalar in %, unitless text.

Examples with answers:
compound	2*(1-BDC) (%)
Cc1c(C)n(Cc2ccccc2)c2ncnc(N)c12	16
CO[C@@H]1C[C@H](CO)N(c2ncnc3[nH]ccc23)C1	52
CCC1(O)CCN(c2ncnc3[nH]ccc23)C1 (centres unmarked)	34
OCC(CC1CCC1)Nc1ncnc2[nH]ccc12 (centres unmarked)	36
Cc1ccc2c(c1)CC[C@@H](C(=O)Nc1nnc3n1CCCC3)O2	14
Cc1ccc(CC(CO)Nc2ncnc3[nH]ccc23)cc1 (centres unmarked)	30
CC1CC(C(=O)O)CCN1C(=O)c1ccc2c(c1)NC(=O)CO2 (centres unmarked)	26
CCC(Nc1ncnc2[nH]ccc12)C(C)O (centres unmarked)	28

The measured 2*(1-BDC) (%) associated with OCC(Nc1ncnc2[nH]ccc12)C1CCC1 (centres unmarked) reads 26

The measured 2*(1-BDC) (%) associated with OCC(CC(O)c1ccccc1)Nc1ncnc2[nH]ccc12 (centres unmarked) reads 34

The measured 2*(1-BDC) (%) associated with OC[C@@H]1C[C@@H]2CCC[C@@H]2N1c1ncnc2[nH]ccc12 reads 58

The measured 2*(1-BDC) (%) associated with OCC(Nc1ncnc2[nH]ccc12)c1ccco1 (centres unmarked) reads 32

The measured 2*(1-BDC) (%) associated with OC(c1ccccc1)C1CCCN1c1ncnc2[nH]ccc12 (centres unmarked) reads 44

The measured 2*(1-BDC) (%) associated with OCC1CCCN1c1ncnc2[nH]ccc12 (centres unmarked) reads 50

* * *

target: SARS-CoV-2 NSP3 macrodomain (Mac1), P43 crystal form (Severe acute respiratory syndrome coronavirus 2); assay type: binding; conditions: PanDDA background density correction
Each entry gets NO if its 1-BDC stays under 0.1, and YES if its 1-BDC is 0.1 or above.

Some solved cases for reference:
molecule	class_label
CC(C)(O)C1C2CCC2CN1c1ncnc2[nH]ccc12 (stereo not drawn)	YES
Cc1sc2ncnc(Sc3ccccc3C(=O)O)c2c1C	YES
CCC(O)[C@H]1CCCN1c1ncnc2[nH]ccc12 (stereo partly drawn)	YES
OCC1CC2(CCC2)CN1c1ncnc2[nH]ccc12 (stereo not drawn)	YES
O[C@H]1CC[C@H]2CCN(c3ncnc4[nH]ccc34)[C@H]21	YES

**Q:** Does the reported 1-BDC for CC(C)(C)C1CCCN1c1ncnc2[nH]ccc12 (stereo not drawn) fall at or above the 0.1 mark?
**A:** NO

**Q:** Does the reported 1-BDC for OCC(CC1CCCCC1)Nc1ncnc2[nH]ccc12 (stereo not drawn) fall at or above the 0.1 mark?
**A:** YES

**Q:** Does the reported 1-BDC for CC(C)(C)C1CCC(CO)N(c2ncnc3[nH]ccc23)C1 (stereo not drawn) fall at or above the 0.1 mark?
**A:** NO

**Q:** Does the reported 1-BDC for CC(C)(C)[C@@H]1CCN(c2ncnc3[nH]ccc23)[C@H](CO)C1 fall at or above the 0.1 mark?
**A:** YES

* * *

molecular target: SARS-CoV-2 NSP3 macrodomain (Mac1), P43 crystal form (Severe acute respiratory syndrome coronavirus 2); type: binding; details: occupancy estimate from PanDDA 1-BDC
readout_name: 2*(1-BDC) (%)
Number first, unit second.

compound	result
OC[C@@H]1C[C@H](F)CN1c1ncnc2[nH]ccc12	34%

The measured 2*(1-BDC) (%) associated with OCC1COCCN1c1ncnc2[nH]ccc12 (stereo not drawn) reads 28%

The measured 2*(1-BDC) (%) associated with OCC(CC1OCCO1)Nc1ncnc2[nH]ccc12 (stereo not drawn) reads 40%

The measured 2*(1-BDC) (%) associated with OCC1CC2(CCOCC2)CN1c1ncnc2[nH]ccc12 (stereo not drawn) reads 42%

The measured 2*(1-BDC) (%) associated with OCC(Cc1ccc(I)cc1)Nc1ncnc2[nH]ccc12 (stereo not drawn) reads 40%

The measured 2*(1-BDC) (%) associated with CC1(C)CCC(CO)N(c2ncnc3[nH]ccc23)C1 (stereo not drawn) reads 34%
